tested on: HCT-116; test: Cytotoxicity against human HCT116 cells after 48 hrs by MTT assay; format: functional, cell-based; details: HCT-116, 48 h
metric_name: IC50 (µM)
Give the number; µM is assumed, so skip it.

>>> recorded_result("C/C(C(=O)CC[C@@H](C)CO[C@@H]1O[C@H](CO)[C@@H](O)[C@H](O)[C@H]1O)=C1/C(=O)C[C@H]2C3CC=C4C[C@@H](O[C@@H]5O[C@H](CO)[C@@H](O)[C@H](O)[C@H]5O[C@@H]5O[C@@H](C)[C@H](O)[C@@H](O)[C@H]5O)CC[C@]4(C)[C@H]3CC[C@]12C (single isomer, unassigned)")
12.7

Consider the compound CC(=O)OC[C@H]1[C@@H]2C3=C(C(=O)[C@@H]2O[C@@]12OC[C@H](C)[C@@H](O)[C@@H]2O)[C@@H]1CC=C2C[C@@H](O)C[C@@H](O[C@@H]4OC[C@H](O)[C@H](O[C@@H]5OC[C@@H](O)[C@H](O)[C@H]5O)[C@H]4O[C@@H]4O[C@@H](C)[C@H](O)[C@@H](O[C@@H]5OC[C@](O)(CO)[C@H]5O)[C@H]4O)[C@]2(C)[C@H]1CC3 . State its measured IC50.
22.5
